Entries and their activity coefficient values follow.
- assay info: activity coefficient (dimensionless); of the first substance listed, at infinite dilution; xn = mol fraction of the nth substance listed
- stated conditions: 323 K; 101.33 kPa; Liquid; Chromatography; x1 = 0
// response body must contain only the number

Reference set (5 entries):
[[record]]
molecule = "O=C1CCCCC1 [cyclohexanone] + CCCCCCCCCC[N+](C)(C)CCCCCCCCCC.[O-][Cl+3]([O-])([O-])[O-]"
measured = 11.7

[[record]]
molecule = "CC(C)O [propan-2-ol] + CCCCCCCCCC[N+](C)(C)CCCCCCCCCC.[O-][Cl+3]([O-])([O-])[O-]"
measured = 1.5

[[record]]
molecule = "c1ccccc1 [benzene] + CCCCCCCCCC[N+](C)(C)CCCCCCCCCC.[O-][Cl+3]([O-])([O-])[O-]"
measured = 0.499

[[record]]
molecule = "CCO [ethanol] + CCCCCCCCCC[N+](C)(C)CCCCCCCCCC.F[B-](F)(F)F"
measured = 0.469

[[record]]
molecule = "C1CCCC1 [cyclopentane] + CCCCCCCCCC[N+](C)(C)CCCCCCCCCC.[O-][Cl+3]([O-])([O-])[O-]"
measured = 1.16


Query: Name the recorded activity coefficient of the item C=CCCCC [hex-1-ene] + CCCCCCCCCC[N+](C)(C)CCCCCCCCCC.F[B-](F)(F)F in your answer.
Reply: 1.52

Query: Name the recorded activity coefficient of the item C=CCCCCCC [oct-1-ene] + CCCCCCCCCC[N+](C)(C)CCCCCCCCCC.F[B-](F)(F)F in your answer.
Reply: 0.757

Query: Name the recorded activity coefficient of the item C1CCOC1 [tetrahydrofuran] + CCCCCCCCCC[N+](C)(C)CCCCCCCCCC.[O-][Cl+3]([O-])([O-])[O-] in your answer.
Reply: 0.478
